- Protocol details: protein stability index of a GFP-peptide fusion (GPS, HEK-293T) (PSI 1-6); higher = more stable;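 note: 24-mer peptide tiles fused after GFP, lentivirally expressed, FACS-sorted into six equal bins by GFP/DsRed ratio, decoded by Illumina sequencing, PSI is the read-weighted mean bin number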
- Measurement conditions: treatment: DMSO; c terminus: a fixed tail appended
Each entry below lists one item and its recorded protein stability index value.
Could you keep your reply to the number by itself?

Past entries and their recorded results:
{"Sequence record": "GTEFMQDPDEEHLKKSSQVPRTEA [PDLIM7]", "Experimental endpoint": "protein stability index", "Readout number": 5.47}
{"Sequence record": "SDEDDEEERRRRVFDVPIRRRRCS [FBXO3]", "Experimental endpoint": "protein stability index", "Readout number": 5.41}
{"Sequence record": "DIKICALGEEWSLHKIYLCQSGYF [GMCL1]", "Experimental endpoint": "protein stability index", "Readout number": 2.91}

Continue with the sequence presented below.
IN: Could you tell me which protein stability index is on file for VEVGDKTHWAVGVCRDSVSRKGEL [TRIM39] ?
OUT: 3.06

* * *

- Protocol details: protein stability index of a GFP-peptide fusion (GPS, HEK-293T) (PSI 1-6); higher = more stable
- Measurement conditions: treatment: DMSO; c terminus: a fixed tail appended
Outcome label depends on protein stability index relative to 3: at/above gives Y, below gives N.

{"Sequence record": "IEQQQIRNALENIRKEMKLLEQAG [CRYL1]", "Class name": "Y"}
{"Sequence record": "AAGEPLECPTCGHSYNVTQRRPRV [RNF208]", "Class name": "Y"}
{"Sequence record": "FSHSGRYIMTRDYLTVKVWDLNME [PPP2R2B]", "Class name": "N"}
{"Sequence record": "DLLKKAKFHHSDCLSTWLLHFIAT [RHOBTB3]", "Class name": "N"}
{"Sequence record": "LPPALVPAGGLAPGGGRGALLDQI [WAS]", "Class name": "Y"}

Okay, now this sequence:
IN: Reported protein stability index reaches at least 3 for HHSTQPKRNKRNPIFQDSQDTEVF [FAM104B] ?
OUT: Y

* * *

- Protocol details: protein stability index of a GFP-peptide fusion (GPS, HEK-293T) (PSI 1-6); higher = more stable
- Measurement conditions: treatment: MLN4924 1 uM, 8 h; c terminus: a fixed tail appended
Outcome label depends on protein stability index relative to 3: at/above gives Fulfilled, below gives Not fulfilled.

Field: example entries. Status: answers known.
{"Sequence record": "HGDSQQTHLLKQGRSSMGTGLSGG [CRY1]", "Class name": "Fulfilled"}
{"Sequence record": "PSRYAAIYNGGVEAVSTLLGAVAV [SLC19A2]", "Class name": "Not fulfilled"}
{"Sequence record": "VAGMPTAYDLSSVIASGSSVGHNN [CARM1]", "Class name": "Fulfilled"}
{"Sequence record": "SLTLEDVAVDFTWEEWQFLSPAQK [ZNF649]", "Class name": "Fulfilled"}
{"Sequence record": "GRQPCGRFLRAYREGALRAALQRS [TRADD]", "Class name": "Not fulfilled"}

IN: Reported protein stability index reaches at least 3 for CAINKVGVSFSTVENELMISYLMF [FAM98B] ?
OUT: Not fulfilled

IN: // next record LSYVMSGYRCFVCPVEYNNDTNSF [CDS2]
OUT: Not fulfilled

* * *

Each entry below lists one item and its recorded protein stability index value.
- Protocol details: protein stability index of a GFP-peptide fusion (GPS, HEK-293T) (PSI 1-6); higher = more stable
- Measurement conditions: treatment: MLN4924 1 uM, 8 h; c terminus: a fixed tail appended

Past entries and their recorded results:
{"Sequence record": "TVEDLFYNIATRRKALKNPSEEYG [MLH1]", "protein stability index": 3.06}
{"Sequence record": "HMILENCSISKMEEEAGQTSIEPS [ZER1]", "protein stability index": 5.2}
{"Sequence record": "WEQKVLVIVMTTRFEEGGRRKCGQ [PTPN9]", "protein stability index": 2.28}
{"Sequence record": "TPWALALLRTFDAGEFTGWEKVGS [RIPK4]", "protein stability index": 1.49}
{"Sequence record": "FNGLTLLLMAVVSMFTLPVVYVKH [RTN1]", "protein stability index": 3}
{"Sequence record": "LPSLVLARLVFVPLLLLCNIKPRR [SLC29A1]", "protein stability index": 2.73}
{"Sequence record": "NLRLQRKLQREMERREALCRQLSE [CCDC6]", "protein stability index": 3.63}
{"Sequence record": "SKVLSLQDLCCRTIVSCTPVHLVD [RAB40A]", "protein stability index": 2.98}

IN: Could you tell me which protein stability index is on file for VSGDTSKLMKILQPQDVDLALDSG [RIPK4] ?
OUT: 4.68

IN: // next record NIMGIENICELAARMLFSAVEWAR [NR2F2]
OUT: 2.79

IN: // next record LKGYLYAVGGRNAAGELPTVECYN [KLHL13]
OUT: 2.67

IN: // next record HGGLYKPVQCHPSTGYCWCVLVDT [SMOC2]
OUT: 2.39

IN: // next record AYGNRTECRNPQELESIRQDRDAL [FEM1B]
OUT: 4.68

* * *

- Protocol details: protein stability index of a GFP-peptide fusion (GPS, HEK-293T) (PSI 1-6); higher = more stable
- Measurement conditions: treatment: MLN4924 1 uM, 8 h; c terminus: a fixed tail appended
Experimental endpoint: protein stability index
Could you keep your reply to the number by itself?

{"Sequence record": "SPKRQLQFYRNLGKSGLRVSCLGL [KCNAB2]", "protein stability index": 2.18}
{"Sequence record": "GLEAASVYSDHTNTNNLTFLMDLP [RNF180]", "protein stability index": 3.22}
{"Sequence record": "SRDSAAITHSTYSLPASSYSQDPV [NOL4L]", "protein stability index": 4.62}
{"Sequence record": "NTNVLSRDLIPPHVNFSHLTTKDY [SLC6A17]", "protein stability index": 3.87}

IN: Could you tell me which protein stability index is on file for PQAPAPATATDTFEAAPPAPAPAP [CEBPB] ?
OUT: 5.38

IN: // next record DALGMDPMMEHEMGGHHPGADYPV [CTNNB1]
OUT: 4.55

IN: // next record FTKVVQPQEEIATKKLRLTKPSKS [INTS4]
OUT: 4.07

IN: // next record LQGTESLNRATQSIERSHRIATET [VTI1B]
OUT: 4.76

IN: // next record VSNMSGPSGEEEAKVGPGLPDGCQ [CBY2]
OUT: 5.16

* * *

- Protocol details: protein stability index of a GFP-peptide fusion (GPS, HEK-293T) (PSI 1-6); higher = more stable
- Measurement conditions: treatment: DMSO; c terminus: a fixed tail appended
Experimental endpoint: protein stability index
Could you keep your reply to the number by itself?

{"Sequence record": "NRRMVGPDVIPLPHIYGARIKGVE [FAM189A2]", "protein stability index": 3.19}
{"Sequence record": "ELRNMCDEHIASEEPAEKEDLLQQ [CLCN6]", "protein stability index": 5.38}

Continue with the sequence presented below.
IN: Could you tell me which protein stability index is on file for CEMEQQSQEYQILLDVKTRLEQEI [KRT16] ?
OUT: 4.1

* * *

- Protocol details: protein stability index of a GFP-peptide fusion (GPS, HEK-293T) (PSI 1-6); higher = more stable
- Measurement conditions: treatment: DMSO; c terminus: a fixed tail appended
Each entry below lists one item and its recorded protein stability index value.
Could you keep your reply to the number by itself?

Past entries and their recorded results:
{"Sequence record": "LSTNNNTLRDHFKGISSHSRSSLM [SLC2A12]", "Experimental endpoint": "protein stability index", "Readout number": 2.93}
{"Sequence record": "VQKDKYPEEFSLLKLQTKDGHRPE [SPATS1]", "Experimental endpoint": "protein stability index", "Readout number": 4.64}
{"Sequence record": "HGDSQQTHLLKQGRSSMGTGLSGG [CRY1]", "Experimental endpoint": "protein stability index", "Readout number": 4.36}

IN: Could you tell me which protein stability index is on file for YVFYLAVGNYRLKEYEKALKYVRG [FIS1] ?
OUT: 2.79

IN: // next record QLFFFHLFVGVDCFLLTAMAYDQF [OR3A1]
OUT: 3.13

IN: // next record SRLLFFLLGFLRIRVRGQRASRLQ [LPCAT4]
OUT: 2.35

IN: // next record KNRYANVIAYDHSRVLLSAIEGIP [PTPRD]
OUT: 2.27

IN: // next record CMFCNEEFLGNRSVILNHMAREHA [ZNF277]
OUT: 3.62

IN: // next record AAINSIYSNTDANILFYVVGLRNT [GLT8D2]
OUT: 2.97

IN: // next record HHHLHKTLREITDQEHNVAALKQA [TEKT4]
OUT: 4.35

* * *

- Protocol details: protein stability index of a GFP-peptide fusion (GPS, HEK-293T) (PSI 1-6); higher = more stable
- Measurement conditions: treatment: MLN4924 1 uM, 8 h; c terminus: a fixed tail appended
Experimental endpoint: protein stability index
Could you keep your reply to the number by itself?

Past entries and their recorded results:
{"Sequence record": "FGGVLEYFMIQALNQKTSEKMKKR [RHOBTB3]", "protein stability index": 2.24}
{"Sequence record": "RQTVPPLTVRLHTQSVSECITEDG [PWWP2B]", "protein stability index": 4.7}

IN: Could you tell me which protein stability index is on file for PRGRRISVICRSLPEGMGPGESGQ [ALKBH7] ?
OUT: 3.95
